Measured values drawn from PubChem BioAssay (NCI) for this set.

- Test system: BT-549 breast
- test.summary: NCI-60 one-dose screen, 48 h (100 = growth as untreated, 0 = no growth, -100 = all killed)
- study.conditions: 10 µM unless noted
The panel holds about 83,000 compounds, 20% with a hit somewhere; the sample as a whole holds those more often. Calls of active or inactive are those of the source. How the source made its calls: active means growth percent below 10; inactive means the rest.
measurement.name: growth

Previously resolved entries follow.
compound: C[n+]1c(/C=C/c2ccc(N(CCCl)CCCl)cc2)sc2ccccc21
measurement.name: growth
reported.value: 64.3% (inactive)
--
compound: C[C@@]12CC[C@@H](O)C[C@@H]1CC[C@H]1[C@H]2CC[C@@]2(C)[C@H](c3ccc(=O)oc3)CC[C@@]12O
measurement.name: growth
reported.value: -84.2% (active)
--
compound: CCC(CC)CC1(C)CC2(C)CCOC2OO1 (stereo not given)
measurement.name: growth
reported.value: 112% (inactive)

Dear colleague, could you send me growth for each of the items below? Thanks.
1. COc1ccc(S(=O)(=O)Nc2c(/C=C\c3cc(OC)c(OC)c(OC)c3)ccc(OC)c2O)cc1OC
2. O=P(N1CC1)(N1CC1)N1CCc2ccccc21
3. CC(=O)O[C@H]1C(=O)[C@@]2(C)[C@H]([C@H](OC(=O)c3ccccc3)[C@]3(O)C[C@H](OC(=O)[C@H](OC(=O)OC[C@@H]4COC(C)(C)O4)[C@@H](NC(=O)c4ccccc4)c4ccccc4)C(C)=C1C3(C)C)[C@]1(OC(C)=O)CO[C@@H]1C[C@@H]2O
4. COc1cc(/C=C/[N+](=O)[O-])cc(OC)c1
5. N#C[Se]Cc1cc(-c2ccccc2)n(-c2ccc(S(N)(=O)=O)cc2)n1
6. O=C(Nc1ccc(O)cc1)C(Cl)(Cl)Cl

Result string:
["20.7% (inactive)", "99.4% (inactive)", "12.5% (inactive)", "-49.7% (active)", "-34.6% (active)", "91.2% (inactive)"]

Dear colleague, could you send me growth for each of the items below? Thanks.
1. CCCc1cc(O)c2c3c(c(=O)oc2c1)CN(C)CC3
2. C1CCC([PH+](C2CCCCC2)C2CCCCC2[PH+](C2CCCCC2)C2CCCCC2)CC1.O=C(C1[CH-]CCCC1)C1CCCC[N-]1.[Au] (stereo not given)
3. CC1(C)CN1P(=O)(N1CC1(C)C)N1CC1(C)C (stereo not given)
4. Cc1ccc(C(=O)NCCCOc2ccc(N3C(N)=NC(N)=NC3(C)C)cc2Cl)cc1S(=O)(=O)F
5. O=C(Nc1ccncc1F)c1cn(CC2CC2)c2ccccc12
6. O=C(CC1(O)C(=O)Nc2ccccc21)c1ccc(C(=O)NCC2CCC3(CC2)OOC2(CCCCC2)OO3)cc1 (stereo not given)
7. COc1ccc(-n2c(C)nc3cc(OC)c(OC)cc3c2=O)cc1OC

Result string:
["39.2% (inactive)", "-14.7% (active)", "105% (inactive)", "64.8% (inactive)", "94.4% (inactive)", "80.1% (inactive)", "102% (inactive)"]

Dear colleague, could you send me growth for each of the items below? Thanks.
1. COc1ccc(Nc2ccnc3cc(Cl)ccc23)cc1CN(CCCl)CCCl
2. CC(C)[C@@H]1NC(=O)[C@]2(C)CSC(=N2)c2csc(n2)CNC(=O)C[C@@H](/C=C/CCS)OC1=O
3. CCCCCCCCCCCCCCCCCC1OC[C@@H](COC(=O)O[C@@H](C(=O)O[C@H]2C[C@@]3(O)[C@@H](OC(=O)c4ccccc4)[C@@H]4[C@]5(OC(C)=O)CO[C@@H]5C[C@H](O)[C@@]4(C)C(=O)[C@H](OC(C)=O)C(=C2C)C3(C)C)[C@@H](NC(=O)c2ccccc2)c2ccccc2)O1 (stereo not given in full)
4. CC12CC=CCC1CCC1C2CCC2(C)C(c3ccc(=O)oc3)CCC12O (stereo not given)
5. c1ccc(CSC(c2ccccc2)c2ccccc2)cc1
6. COc1cc2c(c(OC)c1OC)-c1ccc([O-])c(=O)cc1[C@@H](NC(C)=O)CC2.COc1cc2c(c(OC)c1OC)-c1ccc([O-])c(=O)cc1[C@@H](NC(C)=O)CC2.[Cu+2]
7. COc1cc(/C=C\c2cc(OC)c(OC)c(OC)c2)cc(N/C=C\C(=O)c2cc(OC)c(OC)c(OC)c2)c1OC
8. Cc1ccc(C(Cc2ccccc2)NCCO)cc1 (stereo not given)

Result string:
1: -50.6% (active); 2: 41.7% (inactive); 3: 55.2% (inactive); 4: -65.4% (active); 5: 116% (inactive); 6: 12.8% (inactive); 7: 43.9% (inactive); 8: 69.3% (inactive)
